study-system: cycloxygenase (Oryctolagus cuniculus)
Construct: The washed platelets thus obtained were employed as a cycloxygenase source
Sequence (O97554 31-606): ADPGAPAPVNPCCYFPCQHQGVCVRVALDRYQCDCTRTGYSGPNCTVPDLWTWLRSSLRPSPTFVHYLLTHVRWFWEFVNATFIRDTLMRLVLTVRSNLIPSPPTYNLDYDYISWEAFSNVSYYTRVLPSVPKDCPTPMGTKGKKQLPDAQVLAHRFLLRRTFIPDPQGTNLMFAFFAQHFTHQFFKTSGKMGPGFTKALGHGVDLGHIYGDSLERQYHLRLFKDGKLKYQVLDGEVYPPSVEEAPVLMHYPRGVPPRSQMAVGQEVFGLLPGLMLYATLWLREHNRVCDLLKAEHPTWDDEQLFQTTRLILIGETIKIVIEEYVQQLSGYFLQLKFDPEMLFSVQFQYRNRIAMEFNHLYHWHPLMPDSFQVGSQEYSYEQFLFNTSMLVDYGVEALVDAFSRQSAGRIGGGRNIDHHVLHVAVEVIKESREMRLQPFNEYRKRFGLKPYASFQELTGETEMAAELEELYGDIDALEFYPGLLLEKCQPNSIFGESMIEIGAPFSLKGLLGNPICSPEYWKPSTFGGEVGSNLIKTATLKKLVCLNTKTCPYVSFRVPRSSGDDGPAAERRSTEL
assay-comment: Cycloxygenase inhibiting activity (washed platelets as cycloxygenase source)
measurement-conditions: washed rabbit platelets, 14C-labelled arachidonic acid, 37° C., 3 minutes; read-out: 50% Inhibitory concentration (cycloxygenase)
// pIC50 lookup, one value per entry
A value of pIC50 is the negative decimal logarithm of a concentration given in moles per litre.

COc1ccc(-c2ncc(Cc3cccs3)nc2-c2ccc(OC)cc2)cc1
4.07
COc1ccc(-c2ncc(C)nc2-c2ccc(OC)cc2)cc1
4.52

Task item: Can you look up the measured pIC50 of COc1ccc(-c2nc(C)c(C)nc2-c2ccc(OC)cc2)cc1 for me?
Reply: 4.21

Task item: Quick one: pIC50 of COc1ccc(Cc2cnc(-c3ccccc3)c(-c3ccccc3)n2)cc1 ?
Reply: 3.66
